- Test system: T1, murine GPC3-his protein (murine, UniProt Q8CFZ4 25-558, limits assumed)
- T1 construct: Bought protein; also called mouse GPC3 protein; murine GPC3 protein; not shown: His tag
- T1 sequence (Q8CFZ4 25-558 limits assumed): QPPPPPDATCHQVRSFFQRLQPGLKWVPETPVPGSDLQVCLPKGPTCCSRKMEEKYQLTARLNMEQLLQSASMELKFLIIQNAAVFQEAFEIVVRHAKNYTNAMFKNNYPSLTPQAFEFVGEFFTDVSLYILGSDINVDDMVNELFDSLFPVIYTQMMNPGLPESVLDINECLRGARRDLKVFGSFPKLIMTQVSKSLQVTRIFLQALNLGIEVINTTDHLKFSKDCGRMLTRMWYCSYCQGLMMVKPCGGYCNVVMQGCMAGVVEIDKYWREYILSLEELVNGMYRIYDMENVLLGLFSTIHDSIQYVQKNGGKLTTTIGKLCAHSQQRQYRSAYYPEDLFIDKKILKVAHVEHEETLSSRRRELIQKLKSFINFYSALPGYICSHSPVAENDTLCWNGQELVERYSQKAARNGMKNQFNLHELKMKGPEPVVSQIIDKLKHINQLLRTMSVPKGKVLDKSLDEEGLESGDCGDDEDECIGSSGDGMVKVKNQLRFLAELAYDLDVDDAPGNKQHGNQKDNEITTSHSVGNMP
- Protocol details: ELISA, murine GPC3-his coated; antibody 0.004 nM
Recorded measurements of OD450 nm, one per entry
Field format: numeric only.

Before answering, review these 2 worked examples.
# Binder, Test result
measured = [
    ("hAb001H2L1 (antibody, human IgG1, V domains shown, Humanized F2.169.2, H2+L1) VH: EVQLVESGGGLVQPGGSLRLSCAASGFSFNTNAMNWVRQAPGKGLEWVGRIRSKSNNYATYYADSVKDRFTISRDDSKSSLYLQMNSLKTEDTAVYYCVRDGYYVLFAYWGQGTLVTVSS VL: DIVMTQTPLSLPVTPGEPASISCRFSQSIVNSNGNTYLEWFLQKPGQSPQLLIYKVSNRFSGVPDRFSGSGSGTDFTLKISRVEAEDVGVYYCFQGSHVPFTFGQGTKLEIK", 0.524),
    ("hAb001H1L1a (antibody, human IgG1, V domains shown, Humanized F2.169.2, H1+L1a) VH: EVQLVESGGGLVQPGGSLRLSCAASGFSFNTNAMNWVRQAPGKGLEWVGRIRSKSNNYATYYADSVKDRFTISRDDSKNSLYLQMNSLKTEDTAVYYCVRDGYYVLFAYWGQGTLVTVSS VL: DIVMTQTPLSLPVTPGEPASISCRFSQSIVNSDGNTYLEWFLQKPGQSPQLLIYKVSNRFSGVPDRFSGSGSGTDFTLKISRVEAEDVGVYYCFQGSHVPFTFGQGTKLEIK", 0.356),
]

Inquiry: Identify OD450 nm associated with the binder hAb001H1aL1a (antibody, human IgG1, V domains shown, Humanized F2.169.2, H1a+L1a) VH: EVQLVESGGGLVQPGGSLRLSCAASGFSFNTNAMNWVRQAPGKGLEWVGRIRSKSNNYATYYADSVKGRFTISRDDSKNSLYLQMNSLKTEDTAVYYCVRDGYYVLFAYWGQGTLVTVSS VL: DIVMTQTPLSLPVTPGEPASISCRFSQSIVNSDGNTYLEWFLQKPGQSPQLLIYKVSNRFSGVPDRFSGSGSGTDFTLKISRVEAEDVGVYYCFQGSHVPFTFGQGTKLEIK
Reply text: 0.206
